Listed sequences paired with reported pEC50
- Tested target: HLA-B*2703 (Homo sapiens, UniProt P01889, D138H/D201E/E176V/E204Q/G107R/H137Y/K202T/N104T/N87E/Q56L/Q94K/R106L/R155S/R180L/S101D/S121N/S48T/Y140D/Y33H/Y83H/Y91C)
- Construct: expressed in transfected cells; host or cells: RMA-S (TAP-deficient murine cell line)
- Measurement notes: HLA/peptide complex stability assay, RMA-S cells transfected with HLA-B*2703
- Assay type: cell-based
- Condition set: relative affinity (EC50 class), B*2703
pEC50: −log10 of the molar value. Ends that are not written are not given here.

- Seq: "VRNKDLNTL [M 169-177]"
  Recorded endpoint: "pEC50"
  Test result: "< 3.70"
- Seq: "RRANNVLKNEM [NP 184-194]"
  Recorded endpoint: "pEC50"
  Test result: "4.22 to 4.70"
- Seq: "KRLPADVLKK [M2 150-159]"
  Recorded endpoint: "pEC50"
  Test result: "3.70 to 4.21"
- Seq: "HRQDINGKEM [NP 100-109]"
  Recorded endpoint: "pEC50"
  Test result: "3.70 to 4.21"
- Seq: "LRNEESEKMAK [P 198-208]"
  Recorded endpoint: "pEC50"
  Test result: "< 3.70"

Now let's try a different one.
What does the record list as pEC50 for GRNEVFSNK [L 2089-2097] ?
3.70 to 4.21

----------
- Tested target: HLA-B*2706 (Homo sapiens, UniProt P01889, A235G/D201E/E204Q/G107R/H137Y/K202T/N104T/N87E/Q56L/Q94K/R106L/R155S/R180L/S121N/S48T/Y33H/Y91C)
- Construct: expressed in transfected cells; host or cells: RMA-S (TAP-deficient murine cell line)
- Measurement notes: HLA/peptide complex stability assay, RMA-S cells transfected with HLA-B*2706
- Format: cell-based
- Condition set: SD
Ends that are not written are not given here.
Recorded endpoint: EC50 (nM)
Report the value in nM with no unit label.

Can you look up the measured EC50 of RRAAAAAAAI [RRA7I] for me?
2000

----------
- Tested target: HLA-B*2704 (Homo sapiens, UniProt P01889, A235G/D138H/D201E/E204Q/G107R/H137Y/K202T/N104T/N87E/Q56L/Q94K/R106L/R155S/R180L/S121N/S48T/Y140D/Y33H/Y91C)
- Measurement notes: HLA/peptide complex stability assay, RMA-S cells transfected with HLA-B*2704
- Type: cell-based
- Condition set: Table 3; classes of EC50 from stabilization assay in transfected RMA-S cells; read-out: relative affinity (EC50 class), B*2704
Ends that are not written are not given here.
Recorded endpoint: EC50

Recorded EC50 of KRAVGIGAL [HIV gp160 500-508, reference compound] , please.
20 to 60 µM

----------
- Tested target: HLA-B*2706 (Homo sapiens, UniProt P01889, A235G/D201E/E204Q/G107R/H137Y/K202T/N104T/N87E/Q56L/Q94K/R106L/R155S/R180L/S121N/S48T/Y33H/Y91C)
- Construct: expressed in transfected cells; host or cells: RMA-S (TAP-deficient murine cell line)
- Measurement notes: HLA/peptide complex stability assay, RMA-S cells transfected with HLA-B*2706
- Type: cell-based
- Condition set: EC50, B*2706
Ends that are not written are not given here.
Recorded endpoint: EC50

Past entries and their recorded results:
- Seq: "GRNEVFSNK [L 2089-2097]"
  Test result: "> 200 µM"
- Seq: "LRNEESEKMAK [P 198-208]"
  Test result: "> 200 µM"

Which value of EC50 has been reported for KRLPADVLKK [M2 150-159] in the records?
> 200 µM

----------
- Tested target: HLA-B*2705 (Homo sapiens, UniProt P01889, D138H/D201E/E176V/E204Q/G107R/H137Y/K202T/N104T/N87E/Q56L/Q94K/R106L/R155S/R180L/S101D/S121N/S48T/Y140D/Y33H/Y91C)
- Construct: expressed in transfected cells; host or cells: RMA-S (TAP-deficient murine cell line)
- Measurement notes: HLA/peptide complex stability assay, RMA-S cells transfected with HLA-B*2705
- Assay type: cell-based
- Condition set: EC50, B*2705; SD
Ends that are not written are not given here.
Recorded log10 EC50 values for a group of sequences are listed next.
On a log10 scale: recorded EC50, unit µM.

Solved cases below.
- Seq: "LRNEESEKMAK [P 198-208]"
  Test result: 1.99
- Seq: "KRLPADVLKK [M2 150-159]"
  Test result: 1.26
- Seq: "HRQDINGKEM [NP 100-109]"
  Test result: 1.70
- Seq: "SRSALLAQM [M 76-84]"
  Test result: 0.70
- Seq: "HRFIYLINH [NS2 37-45]"
  Test result: 0.85
- Seq: "KRYKGLLPKDI [NP 195-205]"
  Test result: 0.85
- Seq: "GRNEVFSNK [L 2089-2097]"
  Test result: 1.51

Fill blank: measured log10 EC50 of the sequence RRANNVLKNEM [NP 184-194] is ____.
1.30

----------
- Tested target: HLA-B*2704 (Homo sapiens, UniProt P01889, A235G/D138H/D201E/E204Q/G107R/H137Y/K202T/N104T/N87E/Q56L/Q94K/R106L/R155S/R180L/S121N/S48T/Y140D/Y33H/Y91C)
- Measurement notes: HLA/peptide complex stability assay, RMA-S cells transfected with HLA-B*2704
- Type: cell-based
- Condition set: EC50, B*2704; SD
Ends that are not written are not given here.
# key: entry, value: EC50
Return type: number; implicit unit µM.

See these solved cases before continuing.
- Seq: "SRSALLAQM [M 76-84]"
  Test result: 15
- Seq: "VRNKDLNTL [M 169-177]"
  Test result: 56
- Seq: "KRLPADVLKK [M2 150-159]"
  Test result: 73
- Seq: "HRFIYLINH [NS2 37-45]"
  Test result: 78
- Seq: "RRANNVLKNEM [NP 184-194]"
  Test result: 19

Query: EC50; subject: HRQDINGKEM [NP 100-109]
67

What EC50 value was documented for this sequence, KRYKGLLPKDI [NP 195-205] ?
16

What does the data say about its EC50? Entry: GRNEVFSNK [L 2089-2097]
169

----------
- Tested target: HLA-B*2703 (Homo sapiens, UniProt P01889, D138H/D201E/E176V/E204Q/G107R/H137Y/K202T/N104T/N87E/Q56L/Q94K/R106L/R155S/R180L/S101D/S121N/S48T/Y140D/Y33H/Y83H/Y91C)
- Construct: expressed in transfected cells; host or cells: RMA-S (TAP-deficient murine cell line)
- Measurement notes: HLA/peptide complex stability assay, RMA-S cells transfected with HLA-B*2703
- Format: cell-based
- Condition set: EC50, B*2703
pEC50: −log10 of the molar value. Ends that are not written are not given here.
Recorded endpoint: pEC50

- Seq: "LRNEESEKMAK [P 198-208]"
  Recorded endpoint: "pEC50"
  Test result: "< 3.70"

With those in mind, consider the next sequence.
What value of pEC50 has been recorded for this entry: VRNKDLNTL [M 169-177]
< 3.70

----------
- Tested target: HLA-B*2702 (Homo sapiens, UniProt P01889, D138H/D201E/E176V/E204Q/G107R/H137Y/K202T/L105A/N104I/N87E/Q56L/Q94K/R106L/R155S/R180L/S101N/S121N/S48T/Y140D/Y33H/Y91C)
- Measurement notes: HLA/peptide complex stability assay, RMA-S cells transfected with HLA-B*2702
- Type: cell-based
- Condition set: read-out: relative affinity (EC50 class), B*2702
Ends that are not written are not given here.
Recorded endpoint: EC50

What value of measured EC50 is listed for RRAAAAAAAI [RRA7I] ?
20 to 60 µM

----------
- Tested target: HLA-B*2706 (Homo sapiens, UniProt P01889, A235G/D201E/E204Q/G107R/H137Y/K202T/N104T/N87E/Q56L/Q94K/R106L/R155S/R180L/S121N/S48T/Y33H/Y91C)
- Construct: expressed in transfected cells; host or cells: RMA-S (TAP-deficient murine cell line)
- Measurement notes: HLA/peptide complex stability assay, RMA-S cells transfected with HLA-B*2706
- Type: cell-based
- Condition set: EC50, B*2706; SD
Ends that are not written are not given here.
Recorded endpoint: pEC50
Here pEC50 is given on a logarithmic scale as minus log10 of the concentration in mol/L.

- Seq: "HRQDINGKEM [NP 100-109]"
  pEC50: 5.52

For SRSALLAQM [M 76-84] , what is its reported pEC50?
6.00

Param item = RRANNVLKNEM [NP 184-194] ; retrieve measured pEC50.
5.70

Any idea what pEC50 was measured for VRNKDLNTL [M 169-177] ?
5.52

What measured pEC50 goes with HRFIYLINH [NS2 37-45] ?
4.35

Would you kindly share the measured pEC50 for KRYKGLLPKDI [NP 195-205] ?
6.00
